Parameter DNA METHYLASE SUBSTRATE ACTIVITY, ACTIVITY (CPM): see the listing below.
- Tested on: bacterial SssI methyltransferase
- PROTOCOL: DNA methylase substrate activity with bacterial SssI enzyme preparation
- Format: biochemical
- PROTOCOL_CONDITIONS: Table 3; bacterial SssI enzyme preparation; 0.25 μg oligomer; average of 2 expts; background 1351
Number only, in CPM; omit the unit.

Some substances with recorded DNA METHYLASE SUBSTRATE ACTIVITY, ACTIVITY (CPM):
5' ATTGCGNATTNCGGATNCGCGATC 3' (5-methylcytosine at 7, 11, 17, further chemistry not given here) [M2, AS with 5-methylcytosine (N) at 7, 11, 17 (non-CpG sites)] :: 51047
5' ATTGNGCATTCNGGATCNGNGATC 3' (5-methylcytosine at 5, 12, 18, 20, further chemistry not given here) [M1, AS with 5-methylcytosine (N) at 5, 12, 18, 20 (all CpG sites)] :: 2339
5' ATTGCGCATTCCGGATCCGCGATC 3' (chemistry not given here) [AS, unmethylated antisense single-stranded 24mer ODN] :: 49282

We now examine a further substance.
Q: What does the data say about its DNA METHYLASE SUBSTRATE ACTIVITY, ACTIVITY (CPM)? Entry: 3' TAACGCGTAAGGCCTAGGCGCTAG 5' (chemistry not given here; listed 3' to 5') [unmethylated sense single-stranded 24mer ODN]
A: 175225

Origin of the recorded values: patent US5652105A
